Listed here: items and their measured combination Emax.
System: SCC90 (Head and Neck Carcinoma)
Assay method text: combination Emax (second highest fraction inhibited in the dose matrix, 72 h); higher = more inhibition; extreme values may be limits of the assay

Molecule	combination Emax
Cc1c2c(nn1C)CSCc1cc(n(C)n1)CSc1cc(c3ccccc3c1)OCCCc1c(C(=O)O)n(C)c3c-2c(Cl)ccc13 [AZD5991] + CN(C)CCCOc1ccc(-c2ccc3ncc4c(c3c2)n(C2CCOCC2)c(=O)n4C)cn1 [AZD0156] (first compound max 1 µM, 7x7, partner max 1 µM)	0.904
CN(CCO)CC[C@H](CSc1ccccc1)Nc1ccc(S(=O)(=O)NC(=O)c2ccc(N3CCC([C@@H](O)c4ccccc4-c4ccc(Cl)cc4)CC3)cc2)cc1S(=O)(=O)C(F)(F)F [AZD4320] + C[C@@H]1COCCN1C2=NC(=NC(=C2)C3(CC3)[S@](=N)(=O)C)C4=C5C=CNC5=NC=C4 [AZD6738] (first compound max 1 µM, 7x7, partner max 10 µM)	0.535
COc1cc2ncnc(Nc3ccc(F)c(Cl)c3)c2cc1OCCCN1CCOCC1 [Gefitinib] + CC(C)n1c(=O)n(C)c2cnc3cc(F)c(-c4ccc(OCCCN5CCCCC5)nc4)cc3c21 [AZD1390] (first compound max 10 µM, 7x7, partner max 0.3 µM)	0.699
CN(CCO)CC[C@H](CSc1ccccc1)Nc1ccc(S(=O)(=O)NC(=O)c2ccc(N3CCC([C@@H](O)c4ccccc4-c4ccc(Cl)cc4)CC3)cc2)cc1S(=O)(=O)C(F)(F)F [AZD4320] + C[C@@H](Nc1cc(F)cc(F)c1)c1cc(C(=O)N(C)C)cc2c(=O)cc(N3CCOCC3)oc12 [AZD8186] (first compound max 1 µM, 7x7, partner max 3 µM)	0.557
Cn1cnc2c(F)c(Nc3ccc(Br)cc3Cl)c(C(=O)NOCCO)cc21 [Selumetinib] + CC(C)n1c(=O)n(C)c2cnc3cc(F)c(-c4ccc(OCCCN5CCCCC5)nc4)cc3c21 [AZD1390] (first compound max 10 µM, 7x7, partner max 0.3 µM)	0.774
CN(C)CCCOc1ccc(-c2ccc3ncc4c(c3c2)n(C2CCOCC2)c(=O)n4C)cn1 [AZD0156] + C[C@@H]1COCCN1C2=NC(=NC(=C2)C3(CC3)[S@](=N)(=O)C)C4=C5C=CNC5=NC=C4 [AZD6738] (first compound max 1 µM, 7x7, partner max 10 µM)	0.358
Cc1nc(Nc2ncc(C(=O)Nc3c(C)cccc3Cl)s2)cc(N2CCN(CCO)CC2)n1 [Dasatinib] + CC(=O)Nc1cccc(-n2c(=O)n(C3CC3)c(=O)c3c(Nc4ccc(I)cc4F)n(C)c(=O)c(C)c32)c1 [Trametinib] (first compound max 2 µM, 7x7, partner max 1 µM)	0.846
CC(=O)c1c(C)c2cnc(Nc3ccc(N4CCNCC4)cn3)nc2n(C2CCCC2)c1=O [Palbociclib] + CN(CC[C@H](CSC1=CC=CC=C1)NC2=C(C=C(C=C2)S(=O)(=O)NC(=O)C3=CC=C(C=C3)N4CCC(CC4)[C@H](C5=CC=CC=C5C6=CC=C(C=C6)Cl)O)S(=O)(=O)C(F)(F)F)CCO [AZD4320] (first compound max 10 µM, 7x7, partner max 1 µM)	0.862
CN(C)CCCOc1ccc(-c2ccc3ncc4c(c3c2)n(C2CCOCC2)c(=O)n4C)cn1 [AZD0156] + C=CCn1c(=O)c2cnc(Nc3ccc(N4CCN(C)CC4)cc3)nc2n1-c1cccc(C(C)(C)O)n1 [AZD1775] (first compound max 1 µM, partner max 1 µM)	0.777
CN(CCO)CC[C@H](CSc1ccccc1)Nc1ccc(S(=O)(=O)NC(=O)c2ccc(N3CCC([C@@H](O)c4ccccc4-c4ccc(Cl)cc4)CC3)cc2)cc1S(=O)(=O)C(F)(F)F [AZD4320] + Cc1cc2ncnn2cc1Nc1ncc2c(n1)n(C1CCOCC1)c(=O)n2C [AZD7648] (first compound max 1 µM, 7x7, partner max 10 µM)	0.448
CC(=O)c1c(C)c2cnc(Nc3ccc(N4CCNCC4)cn3)nc2n(C2CCCC2)c1=O [Palbociclib] + CC1(C)CCC(CN2CCN(c3ccc(C(=O)NS(=O)(=O)c4ccc(NCC5CCOCC5)c([N+](=O)[O-])c4)c(Oc4cnc5[nH]ccc5c4)c3)CC2)=C(c2ccc(Cl)cc2)C1 [Venetoclax] (first compound max 10 µM, 7x7, partner max 1 µM)	0.155
Cn1cnc2c(F)c(Nc3ccc(Br)cc3Cl)c(C(=O)NOCCO)cc21 [Selumetinib] + C[C@@H]1COCCN1C2=NC(=NC(=C2)C3(CC3)[S@](=N)(=O)C)C4=C5C=CNC5=NC=C4 [AZD6738] (first compound max 10 µM, 7x7, partner max 10 µM)	0.764
Cc1c2c(nn1C)CSCc1cc(n(C)n1)CSc1cc(c3ccccc3c1)OCCCc1c(C(=O)O)n(C)c3c-2c(Cl)ccc13 [AZD5991] + C[C@@H](Nc1cc(F)cc(F)c1)c1cc(C(=O)N(C)C)cc2c(=O)cc(N3CCOCC3)oc12 [AZD8186] (first compound max 1 µM, 7x7, partner max 3 µM)	0.903
